Molecular target: T1, His-tagged Proliferating Cell Nuclear Antigen (PCNA) (human, UniProt P12004 1-261)
T1 construct: human PCNA, cloned into the NdeI and XhoI sites of pET28a for expression with an N-terminal His-tag; Used for ITC and for the peptide pull-downs; also called His-tagged PCNA; His-tagged recombinant PCNA; source: E. coli, from pET28a, purified (Ni-NTA, Q-sepharose, Superdex S-200); not shown: His tag, N-terminal, kept
T1 sequence (P12004 whole entry): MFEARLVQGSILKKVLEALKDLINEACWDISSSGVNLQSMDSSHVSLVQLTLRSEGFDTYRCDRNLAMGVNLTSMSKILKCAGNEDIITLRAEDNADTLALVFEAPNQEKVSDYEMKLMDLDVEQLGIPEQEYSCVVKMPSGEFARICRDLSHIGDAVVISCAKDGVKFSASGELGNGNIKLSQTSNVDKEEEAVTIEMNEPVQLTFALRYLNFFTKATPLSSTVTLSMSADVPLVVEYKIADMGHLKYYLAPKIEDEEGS
Assay: ITC; 15 μM PCNA in the cell, peptides injected stepwise (20 injections of 2 μl), 25 °C, PBS with 1 mM β-mercaptoethanol, single set of independent binding sites model
Details: both partners purified
pKd: −log10 of the molar value.

{"binder": "SKHGSDITRFLVKK [ZRANB3 APIM motif synthetic peptide used for ITC]", "pKd": 5.03}
{"binder": "EKEKQHDIRSFFVPQ [ZRANB3 PIP box synthetic peptide used for ITC]", "pKd": 5.32}

Reference for the values: paper PMC5481773
